Value source: patent US11453711B2

assay: Body weight and food intake in C57BL/6 mice, fusion protein conjugates, 30 nmol/kg daily 10 days; type: in vivo
recorded_metric: Body weight reduction at 30 nmol/kg (% reduction compared to vehicle)(Day11) (%)
Write it as a number; the unit % goes unstated.

Guide cases for Body weight reduction at 30 nmol/kg (% reduction compared to vehicle)(Day11), answers given:
>  <molecule>
MLC047: fusion polypeptide SEQ ID NO: 330 conjugated with Moiety A at 40K of linker (conjugate) HGEGTFTSDVSSYLEEQAAREFIAWLVRGGGGQEPGAQPGQEPGAQPGQEPGAQPGQEPGAQPGQEPGAQKGQEPGAQPGAQPGAQPGAQPGAQPGAQPGAQPGAQPGAQPARQGDHCPLGPGRCCRLHTVRASLEDLGWADWVLSPREVQVTMCIGACPSQFRAANLHAQIKTSLHRLRPDTVPAPCCVPASYNPMVLIQRTDTGVSLQTYDDLLARDCHCI

>  <value_observed>
24.7

$$$$
>  <molecule>
MLC045: fusion polypeptide SEQ ID NO: 328 conjugated with Moiety A at 1K and 55K of Linker (conjugate, Moiety A conjugated at linker K1, K55) HGEGTFTSDVSSYLEEQAAREFIAWLVRGGGKQEPGAQPGQEPGAQPGQEPGAQPGQEPGAQPGQEPGAQPGQEPGAQPGAQPGAKPGAQPGAQPGAQPGAQPGAQPGAQPARQGDHCPLGPGRCCRLHTVRASLEDLGWADWVLSPREVQVTMCIGACPSQFRAANLHAQIKTSLHRLRPDTVPAPCCVPASYNPMVLIQRTDTGVSLQTYDDLLARDCHCI

>  <value_observed>
20.6

$$$$

Would you kindly look at the next entry?
GET /value?item= MLC103: fusion polypeptide SEQ ID NO: 390 conjugated with Moiety A at 71K of Linker (conjugate, Moiety A conjugated at linker Lys71) HGEGTFTSDVSSYLEEQAAREFIAWLVRGGGGQEPGAQPGQEPGAQPGQEPGAQPGQEPGAQPGQEPGAQPGQEPGAQPGAQPGAQPGAQPGAQPGAQPGAKPGAQPGAQPARQGDHCPLGPGRCCRLHTVRASLEDLGWADWVLSPREVQVTMCIGACPSQFRAANLHAQIKTSLHRLRPDTVPAPCCVPASYNPMVLIQRTDTGVSLQTYDDLLARDCHCI &field=Body weight reduction at 30 nmol/kg (% reduction compared to vehicle)(Day11) returns 23.3
